Where these numbers come from: paper PMC10397247

Molecular target: T1, P2-AA-12HAA-I
T1 chain: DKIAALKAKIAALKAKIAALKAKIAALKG
Assay: two-hybrid library CCmax;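 note: natural log of median RNA to DNA barcode read ratio; higher means stronger binding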
Settings: mean of both orientations
ASSAY METRIC: interaction score

- BINDER: "DEIAALEAEVAALEAEVAALEAEIAALEG [P1-AA-12HAA-V]"
  interaction score: 1.82
- BINDER: "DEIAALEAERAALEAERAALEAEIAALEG [P1-AA-12HAA-R]"
  interaction score: 1.45
- BINDER: "DEIAALEAETAALEAETAALEAEIAALEG [P1-AA-12HAA-T]"
  interaction score: 1.84
- BINDER: "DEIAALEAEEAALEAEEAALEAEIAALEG [P1-AA-12HAA-E]"
  interaction score: 1.5
- BINDER: "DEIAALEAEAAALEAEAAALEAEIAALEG [P1-AA-12HAA-A]"
  interaction score: 1.82
